Target: T1, full-length beta-Catenin (Uniprot ID P35222) (Homo sapiens (Human), UniProt P35222 1-781)
T1 construct: Any tags on the recombinant protein are not described for the FP assay; also called bCat; B-Catenin
T1 sequence: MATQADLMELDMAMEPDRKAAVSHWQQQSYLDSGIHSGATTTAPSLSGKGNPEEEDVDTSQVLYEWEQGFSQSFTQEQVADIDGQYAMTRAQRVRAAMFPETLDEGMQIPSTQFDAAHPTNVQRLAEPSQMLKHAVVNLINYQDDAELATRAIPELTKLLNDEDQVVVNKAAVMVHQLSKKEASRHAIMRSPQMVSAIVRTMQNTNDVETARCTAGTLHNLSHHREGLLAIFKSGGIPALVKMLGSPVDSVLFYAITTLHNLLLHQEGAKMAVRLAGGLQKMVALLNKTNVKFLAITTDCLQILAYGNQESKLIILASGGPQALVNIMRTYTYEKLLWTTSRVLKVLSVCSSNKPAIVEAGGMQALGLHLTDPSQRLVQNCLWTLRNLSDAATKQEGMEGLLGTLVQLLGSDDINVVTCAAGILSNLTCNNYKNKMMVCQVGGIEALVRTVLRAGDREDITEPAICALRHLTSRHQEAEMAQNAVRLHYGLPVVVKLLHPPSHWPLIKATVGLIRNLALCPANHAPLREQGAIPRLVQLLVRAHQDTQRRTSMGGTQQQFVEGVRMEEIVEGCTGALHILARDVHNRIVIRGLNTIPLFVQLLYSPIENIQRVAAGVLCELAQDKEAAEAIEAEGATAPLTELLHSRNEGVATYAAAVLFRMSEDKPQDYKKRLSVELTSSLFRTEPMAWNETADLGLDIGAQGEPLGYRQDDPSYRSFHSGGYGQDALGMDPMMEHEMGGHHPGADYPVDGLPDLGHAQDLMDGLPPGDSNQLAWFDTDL
Assay: fluorescence polarization competition; displacement of 5FAM-TCF4(10-53) from full-length beta-catenin
pIC50: −log10 of the molar value. Starred links: 1 amine or outer side, 2 acyl side, 3 side chain; linkers in the order of their positions; H or OH if unused. Positions of bridges follow the written chain, without caps; N, C: chain ends. Non-standard residues stand in square brackets, D forms with d. Primed or numbered codes have the meaning given here. B5(15) = 2-amino-2-(pent-4-en-1-yl)hept-6-enoic acid (2,2-bis(4-pentenyl)glycine), stitching residue bearing two staples, C=CCCCC(CCCC=C)(N[*:1])C(=O)[*:2]; B5(5) = 2,2-bis(4-pentenyl)glycine, 2-amino-2-(pent-4-en-1-yl)hept-6-enoic acid (stitching residue), C=CCCCC(CCCC=C)(N[*:1])C(=O)[*:2]; Bta = N[C@@H](Cc1csc2ccccc12)C(=O)O; αAllylPro = C=CC[C@@]1(C(=O)O)CCCN1; S8 = C=CCCCCCC[C@](C)(N)C(=O)O; hSer = N[C@@H](CCO)C(=O)O
quantity: pIC50

| binder | quantity | value.reported |
| --- | --- | --- |
| XDNXDEAAFQXFXQ (not fully specified; N-terminal Ac; C-terminal NH2; PL3 at 1, B5 at 4 and S8 at 11 stapled by olefin metathesis (PL3-B5 and B5-S8); BztA at 13, Stapled peptide composition; It has the same description as I-1532 and is the staple isomer composition of the earlier eluting HPLC peak) [I-1531: Ac-PL3-Asp-Asn-B5-Asp-Glu-Ala-Ala-Phe-Gln-S8-Phe-BztA-Gln-NH2] | pIC50 | 7.08 |
| Ac-[αAllylPro]DS[B5(5)]DEAAFL[S8]F[Bta]Q-NH2 (staple 1-4, 4-11, Stapled peptide composition; Staple olefins are retained) [I-1528: Ac-PL3-Asp-Ser-B5-Asp-Glu-Ala-Ala-Phe-Leu-S8-Phe-BztA-Gln-NH2] | pIC50 | 6.99 |
| Ac-[αAllylPro]DS[B5(15)]DEAAF[hSer][S8]F[Bta]Q-NH2 (staple 1-4, 4-11; not fully specified; printed as Ac-PL3-Asp-Ser-B5-Asp-Glu-Ala-Ala-Phe-Hse-S8-Phe-BztA-Gln-NH2, Stapled peptide composition; It has the same description as I-1529 and is the staple isomer composition of the later eluting HPLC peak) [I-1530: Ac-PL3-Asp-Ser-B5-Asp-Glu-Ala-Ala-Phe-Hse-S8-Phe-BztA-Gln-NH2] | pIC50 | 7.21 |
| Ac-[αAllylPro]DS[B5(5)]DEAAFQ[S8]F[Bta]Q-NH2 (staple 1-4, 4-11; also: staple isomer, earlier eluting HPLC peak, Stapled peptide composition; It has the same description as I-1527 and is the staple isomer composition of the earlier eluting HPLC peak) [I-1526: Ac-PL3-Asp-Ser-B5-Asp-Glu-Ala-Ala-Phe-Gln-S8-Phe-BztA-Gln-NH2] | pIC50 | 7.08 |
| Ac-[αAllylPro]DS[B5(5)]DEAAFQ[S8]F[Bta]Q-NH2 (staple 1-4, 4-11, Stapled peptide composition; It has the same description as I-1526 and is the staple isomer composition of the later eluting HPLC peak) [I-1527: Ac-PL3-Asp-Ser-B5-Asp-Glu-Ala-Ala-Phe-Gln-S8-Phe-BztA-Gln-NH2] | pIC50 | 7.44 |
| Ac-[αAllylPro]DS[B5(15)]DEAAF[hSer][S8]F[Bta]Q-NH2 (staple 1-4, 4-11; not fully specified; printed as Ac-PL3-Asp-Ser-B5-Asp-Glu-Ala-Ala-Phe-Hse-S8-Phe-BztA-Gln-NH2, Stapled peptide composition) [I-1529: Ac-PL3-Asp-Ser-B5-Asp-Glu-Ala-Ala-Phe-Hse-S8-Phe-BztA-Gln-NH2] | pIC50 | 6.90 |
